tested.system: human collagen type I (acid soluble, extracted from placenta, Sigma C7774) (human) (UniProt P02452)
Sequence (P02452 162-1218 limits assumed, chain 1 of 2): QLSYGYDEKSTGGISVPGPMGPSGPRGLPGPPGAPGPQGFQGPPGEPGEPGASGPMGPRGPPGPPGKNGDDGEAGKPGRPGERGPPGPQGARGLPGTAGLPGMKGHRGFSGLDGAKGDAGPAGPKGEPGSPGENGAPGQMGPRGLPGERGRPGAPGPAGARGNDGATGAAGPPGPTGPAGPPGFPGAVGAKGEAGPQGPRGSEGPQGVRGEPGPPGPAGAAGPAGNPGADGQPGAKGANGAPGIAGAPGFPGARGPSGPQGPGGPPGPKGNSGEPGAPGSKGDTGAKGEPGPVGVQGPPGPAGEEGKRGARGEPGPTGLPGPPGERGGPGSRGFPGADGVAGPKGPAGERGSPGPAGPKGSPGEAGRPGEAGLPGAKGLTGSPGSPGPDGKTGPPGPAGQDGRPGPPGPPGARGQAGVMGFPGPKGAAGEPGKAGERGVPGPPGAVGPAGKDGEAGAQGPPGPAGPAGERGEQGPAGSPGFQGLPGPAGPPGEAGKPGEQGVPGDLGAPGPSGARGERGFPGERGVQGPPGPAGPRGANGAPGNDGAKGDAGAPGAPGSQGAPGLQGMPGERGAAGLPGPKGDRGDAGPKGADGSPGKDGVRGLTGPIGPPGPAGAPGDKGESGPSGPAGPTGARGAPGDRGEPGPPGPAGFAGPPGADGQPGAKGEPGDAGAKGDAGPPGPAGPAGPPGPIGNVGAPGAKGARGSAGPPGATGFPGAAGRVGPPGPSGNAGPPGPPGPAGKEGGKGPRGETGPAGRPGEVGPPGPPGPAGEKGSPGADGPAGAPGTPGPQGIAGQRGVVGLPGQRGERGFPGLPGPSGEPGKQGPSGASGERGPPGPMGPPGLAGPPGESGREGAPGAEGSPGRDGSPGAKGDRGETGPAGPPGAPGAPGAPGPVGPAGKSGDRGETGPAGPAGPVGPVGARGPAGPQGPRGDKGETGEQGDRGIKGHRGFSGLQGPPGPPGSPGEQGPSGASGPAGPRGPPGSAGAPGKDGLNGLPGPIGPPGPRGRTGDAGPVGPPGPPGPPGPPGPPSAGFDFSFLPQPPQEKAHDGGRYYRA
Sequence (P08123 80-1119 limits assumed, chain 2 of 2, further chain): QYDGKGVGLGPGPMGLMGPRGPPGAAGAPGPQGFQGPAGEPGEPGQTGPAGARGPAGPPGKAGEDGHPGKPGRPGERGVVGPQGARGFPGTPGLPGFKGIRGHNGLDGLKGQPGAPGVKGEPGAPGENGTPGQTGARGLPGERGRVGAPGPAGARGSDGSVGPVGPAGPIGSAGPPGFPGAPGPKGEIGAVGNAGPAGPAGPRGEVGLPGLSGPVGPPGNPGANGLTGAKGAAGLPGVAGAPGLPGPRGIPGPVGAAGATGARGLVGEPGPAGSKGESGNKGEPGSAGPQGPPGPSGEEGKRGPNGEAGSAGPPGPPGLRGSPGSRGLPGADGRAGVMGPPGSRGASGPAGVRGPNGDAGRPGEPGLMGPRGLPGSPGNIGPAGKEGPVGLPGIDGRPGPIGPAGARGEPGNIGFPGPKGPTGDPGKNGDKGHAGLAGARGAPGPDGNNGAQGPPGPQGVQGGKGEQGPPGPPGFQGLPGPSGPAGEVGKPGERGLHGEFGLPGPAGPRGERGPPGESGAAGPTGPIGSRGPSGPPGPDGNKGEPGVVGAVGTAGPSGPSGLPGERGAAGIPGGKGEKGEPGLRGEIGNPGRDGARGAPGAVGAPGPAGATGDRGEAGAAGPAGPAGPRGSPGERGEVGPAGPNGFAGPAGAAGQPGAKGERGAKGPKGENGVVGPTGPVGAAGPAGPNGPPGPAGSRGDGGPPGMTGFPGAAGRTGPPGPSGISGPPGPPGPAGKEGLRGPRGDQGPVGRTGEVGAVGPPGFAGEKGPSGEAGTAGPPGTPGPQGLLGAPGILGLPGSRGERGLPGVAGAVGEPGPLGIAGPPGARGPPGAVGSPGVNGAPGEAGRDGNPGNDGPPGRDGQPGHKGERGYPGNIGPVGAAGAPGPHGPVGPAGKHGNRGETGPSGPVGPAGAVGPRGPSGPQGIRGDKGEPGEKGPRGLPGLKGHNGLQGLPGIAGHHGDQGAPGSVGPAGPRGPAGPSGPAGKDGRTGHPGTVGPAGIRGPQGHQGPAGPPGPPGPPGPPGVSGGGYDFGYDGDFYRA
test: dried collagen assay
Bridge positions count the residues as written; N and C are the ends. Ends that are not written are not given here.
quantity.kind: % bound (%)

Observe how each entry below is paired with its result.
[
  {
    "binder": "GWQCSGDASVWNCDWI (disulfide 4-13 (inferred)) [SEQ ID NO: 39]",
    "unit.annotation": "%",
    "% bound": 6
  },
  {
    "binder": "GQWHCTTDYPHHYCLYG (not fully specified; Gd^T-GQWHCTTD-Y(3-Cl)-PHHYCLYG) [Comp ID 895]",
    "unit.annotation": "%",
    "% bound": 7
  }
]

[1] SWHCFLENHHWMCSDH (disulfide 4-13 (inferred)) [SEQ ID NO: 68]
[2] GQWACSGDEYTWHCNYE (not fully specified; Gd^T-GQWACSGDEYTWHCNYE) [Comp ID 840]
[Q] Hi there! Just curious which has the higher % bound between 1 and 2 . State the label of the item chosen.
[A] 2
(2: 15%, 1: 5%)
